Collected OD450 values appear next to each entry.
Molecular target: T1, human MSLN-R2-his protein (human, UniProt Q13421 391-486)
T1 construct: it is put last here; also called human MSLN-R2 protein; hMSLN-R2-his; not shown: His tag
T1 sequence (Q13421 other isoform, or with tags, fused parts or gaps): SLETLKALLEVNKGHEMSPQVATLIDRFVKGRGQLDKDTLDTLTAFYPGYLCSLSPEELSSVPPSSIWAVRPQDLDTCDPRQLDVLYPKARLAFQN
Assay: ELISA on coated antigen, antibody 200 nM
MEASUREMENT_NAME: OD450

- BINDER: "S009-F7.53.2 (antibody, human IgG1, kappa, V domains shown, Human-murine chimeric antibody, human IgG1 heavy and kappa light constant regions) VH: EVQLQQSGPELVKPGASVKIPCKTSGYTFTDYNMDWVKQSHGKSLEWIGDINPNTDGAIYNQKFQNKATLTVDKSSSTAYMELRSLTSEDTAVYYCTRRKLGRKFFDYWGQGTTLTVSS VL: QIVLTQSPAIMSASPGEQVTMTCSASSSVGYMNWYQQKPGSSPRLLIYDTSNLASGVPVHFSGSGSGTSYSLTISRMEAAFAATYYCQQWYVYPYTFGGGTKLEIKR"
  MEASURED_RESULT: "0.08 OD"
- BINDER: "S009-F7.33.24 (antibody, human IgG1, kappa, V domains shown, Human-murine chimeric antibody, human IgG1 heavy and kappa light constant regions) VH: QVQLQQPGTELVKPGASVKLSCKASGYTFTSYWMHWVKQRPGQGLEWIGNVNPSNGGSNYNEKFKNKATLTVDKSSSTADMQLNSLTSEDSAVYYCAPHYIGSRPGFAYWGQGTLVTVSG VL: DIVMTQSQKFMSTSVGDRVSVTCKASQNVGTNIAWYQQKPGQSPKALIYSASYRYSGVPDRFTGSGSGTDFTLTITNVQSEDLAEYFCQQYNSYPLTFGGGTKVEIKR"
  MEASURED_RESULT: "0.08 OD"
- BINDER: "Tab106 (YP218, hIgG1) (antibody, V domains shown, Control antibody; YP218 VH and VL recombined into human IgG1 CH and CL expression vectors; also called YP218 human IgG1 antibody) VH: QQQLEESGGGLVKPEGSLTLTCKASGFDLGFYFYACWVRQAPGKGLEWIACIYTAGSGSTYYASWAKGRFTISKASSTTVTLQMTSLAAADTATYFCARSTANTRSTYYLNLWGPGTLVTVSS VL: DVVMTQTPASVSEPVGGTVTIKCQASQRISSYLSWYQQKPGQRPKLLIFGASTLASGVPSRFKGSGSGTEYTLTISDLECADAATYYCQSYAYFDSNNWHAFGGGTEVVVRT"
  MEASURED_RESULT: "2.54 OD"
- BINDER: "S009-F7.6.17 (antibody, human IgG1, kappa, V domains shown, Human-murine chimeric antibody, human IgG1 heavy and kappa light constant regions) VH: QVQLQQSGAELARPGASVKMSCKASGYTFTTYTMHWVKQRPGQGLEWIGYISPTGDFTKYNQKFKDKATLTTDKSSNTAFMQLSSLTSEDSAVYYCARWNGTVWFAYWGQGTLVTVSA VL: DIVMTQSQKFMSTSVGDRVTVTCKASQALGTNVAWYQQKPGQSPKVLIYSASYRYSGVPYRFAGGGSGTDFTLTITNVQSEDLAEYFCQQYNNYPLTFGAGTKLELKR"
  MEASURED_RESULT: "0.13 OD"
- BINDER: "S009-F7.44.20 (antibody, human IgG1, kappa, V domains shown, Human-murine chimeric antibody, human IgG1 heavy and kappa light constant regions) VH: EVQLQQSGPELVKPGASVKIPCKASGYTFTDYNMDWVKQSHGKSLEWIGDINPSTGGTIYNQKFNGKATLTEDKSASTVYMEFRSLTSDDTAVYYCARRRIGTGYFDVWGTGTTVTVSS VL: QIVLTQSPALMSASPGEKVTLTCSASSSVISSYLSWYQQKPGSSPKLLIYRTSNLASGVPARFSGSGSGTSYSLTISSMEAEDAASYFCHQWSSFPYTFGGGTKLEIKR"
  MEASURED_RESULT: "0.1 OD"

Origin of values: patent US20250250357A1
